conditionDetails: segatella copri, 12 h, 2 µM
Description: The drug is tested on Prevotella copri strain: DSM18205 for biotransformation. The drug concentrations were measured before and after a 12-h incubation by liquid-chromatography-coupled mass spectrometry (LC–MS)
valueKind: Bacterial Biotransformation

Worked set:
compound	valueKind	testResult
O=C1[C@H](CC[C@H](O)c2ccc(F)cc2)[C@@H](c2ccc(O)cc2)N1c1ccc(F)cc1	Bacterial Biotransformation	Compound NOT metabolized
CC(=O)O[C@H]1C(=O)[C@@]2(C)[C@H]([C@H](OC(=O)c3ccccc3)[C@]3(O)C[C@H](OC(=O)[C@H](O)[C@@H](NC(=O)c4ccccc4)c4ccccc4)C(C)=C1C3(C)C)[C@]1(OC(C)=O)CO[C@@H]1C[C@@H]2O	Bacterial Biotransformation	Compound NOT metabolized
CN1CCOC(c2ccccc2)c2ccccc2C1 (configuration not stated)	Bacterial Biotransformation	Compound NOT metabolized
Cc1ccc(-c2cc(C(F)(F)F)nn2-c2ccc(S(N)(=O)=O)cc2)cc1	Bacterial Biotransformation	Compound metabolized

Tell me the measured Bacterial Biotransformation of COc1ccccc1OCCNCC(O)COc1cccc2[nH]c3ccccc3c12 (configuration not stated) , please.
Compound metabolized

Tell me the measured Bacterial Biotransformation of CCc1cccc2c3c([nH]c12)C(CC)(CC(=O)O)OCC3 (configuration not stated) , please.
Compound NOT metabolized

Tell me the measured Bacterial Biotransformation of CCCC(=O)Nc1ccc(OCC(O)CNC(C)C)c(C(C)=O)c1 (configuration not stated) , please.
Compound NOT metabolized

Tell me the measured Bacterial Biotransformation of `COC1=C(OC)C(=O)C(CCCCCCCCCCO)=C(C)C1=O` , please.
Compound NOT metabolized

###

assayTarget: Sialic acid-specific 9-O-acetylesterase (Bacteroides thetaiotaomicron)
Sequence (Q8A0D0 whole entry): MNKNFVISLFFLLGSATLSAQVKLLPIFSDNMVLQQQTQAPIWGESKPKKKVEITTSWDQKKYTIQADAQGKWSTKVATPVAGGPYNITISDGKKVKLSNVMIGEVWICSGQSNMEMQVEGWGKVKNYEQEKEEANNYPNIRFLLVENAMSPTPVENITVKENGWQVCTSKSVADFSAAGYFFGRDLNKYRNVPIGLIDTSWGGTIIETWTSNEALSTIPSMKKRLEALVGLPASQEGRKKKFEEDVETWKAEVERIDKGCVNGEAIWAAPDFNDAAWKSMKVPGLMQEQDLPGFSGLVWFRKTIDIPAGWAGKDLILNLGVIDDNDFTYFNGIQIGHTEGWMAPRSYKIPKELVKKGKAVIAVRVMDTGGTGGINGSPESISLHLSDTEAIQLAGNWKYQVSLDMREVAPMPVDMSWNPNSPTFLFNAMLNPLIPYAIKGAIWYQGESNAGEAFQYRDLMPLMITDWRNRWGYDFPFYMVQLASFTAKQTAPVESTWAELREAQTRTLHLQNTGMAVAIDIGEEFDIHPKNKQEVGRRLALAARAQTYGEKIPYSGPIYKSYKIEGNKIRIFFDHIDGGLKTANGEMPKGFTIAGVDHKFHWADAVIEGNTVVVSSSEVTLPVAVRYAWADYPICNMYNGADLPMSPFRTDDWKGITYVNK
testName: The drug is tested on Bacteroides thetaiotaomicron strain: VPI-5482 for biotransformation. The drug concentrations were measured before and after a 12-h incubation by liquid-chromatography-coupled mass spectrometry (LC–MS)
Type: ADME
Set-up: dose 2 uM
conditionDetails: 2 µM
valueKind: Bacterial Biotransformation

Worked set:
> print(dat)
                                   molecule                testresult
1  C[C@@H]1CC[C@H]2[C@@H](C)C(=O)O[C@@H]3O[C@@]4(C)CC[C@@H]1[C@]32OO4  Compound NOT metabolized
2  C#C[C@]1(O)CC[C@H]2[C@@H]3CCC4=Cc5oncc5C[C@]4(C)[C@H]3CC[C@@]21C  Compound NOT metabolized
3  CC(=O)Oc1ccc(C(c2ccc(OC(C)=O)cc2)c2ccccn2)cc1      Compound metabolized
4  CCN(CC)C(=O)/C(C#N)=C/c1cc(O)c(O)c([N+](=O)[O-])c1  Compound NOT metabolized
5  COc1ccnc(C[S+]([O-])c2nc3ccc(OC(F)F)cc3[nH]2)c1OC (configuration not stated)  Compound NOT metabolized

Tell me the measured Bacterial Biotransformation of `C[C@]12CCC(=O)C=C1[C@@H]1C[C@@H]1[C@H]1[C@@H]3[C@@H]4C[C@@H]4[C@@]4(CCC(=O)O4)[C@@]3(C)CC[C@@H]12` , please.
Compound NOT metabolized

Tell me the measured Bacterial Biotransformation of `CC(=O)OCC(CCn1cnc2cnc(N)nc21)COC(C)=O` , please.
Compound metabolized

###

testName: The drug is tested on Clostridium sp. strain: fecal isolate for biotransformation. The drug concentrations were measured before and after a 12-h incubation by liquid-chromatography-coupled mass spectrometry (LC–MS)
conditionDetails: 2 µM
valueKind: Bacterial Biotransformation

molecule	Bacterial Biotransformation
CC(C)(Oc1ccc(CCNC(=O)c2ccc(Cl)cc2)cc1)C(=O)O [BEZAFIBRATE]	Compound metabolized
CC(C)[C@H]1CC[C@H](C(=O)N[C@H](Cc2ccccc2)C(=O)O)CC1 [NATEGLINIDE]	Compound NOT metabolized
CC(=O)Nc1ccc(OC(C)=O)cc1 [DIACETAMATE]	Compound NOT metabolized
Fc1ccc([C@@H]2CCNC[C@H]2COc2ccc3c(c2)OCO3)cc1 [PAROXETINE]	Compound metabolized

Tell me the measured Bacterial Biotransformation of CC(=O)O[C@]1(C(C)=O)CC[C@H]2[C@@H]3C=C(C)C4=CC(=O)CC[C@]4(C)[C@H]3CC[C@@]21C [MEGESTROL ACETATE] , please.
Compound metabolized

Tell me the measured Bacterial Biotransformation of CN1C(=O)CC(C)(c2ccccc2)C1=O (stereo not given) [METHSUXIMIDE] , please.
Compound metabolized

Tell me the measured Bacterial Biotransformation of Br.COc1ccc2c(c1)[C@]13CCCC[C@@H]1[C@H](C2)N(C)CC3.O [DEXTROMETHORPHAN HYDROBROMIDE] , please.
Compound NOT metabolized

Tell me the measured Bacterial Biotransformation of O=C([O-])C[C@H](O)C[C@H](O)/C=C/c1c(C2CC2)nc2ccccc2c1-c1ccc(F)cc1.O=C([O-])C[C@H](O)C[C@H](O)/C=C/c1c(C2CC2)nc2ccccc2c1-c1ccc(F)cc1.[Ca+2] [PITAVASTATIN CALCIUM] , please.
Compound NOT metabolized

Tell me the measured Bacterial Biotransformation of CC(C)NCC(O)COc1ccc(CCOCC2CC2)cc1 (stereo not given) [BETAXOLOL] , please.
Compound NOT metabolized

Tell me the measured Bacterial Biotransformation of CNCC[C@H](Oc1cccc2ccccc12)c1cccs1 [DULOXETINE] , please.
Compound metabolized

Tell me the measured Bacterial Biotransformation of CCCN1C[C@H](CSC)C[C@@H]2c3cccc4[nH]cc(c34)C[C@H]21.CS(=O)(=O)O [PERGOLIDE MESYLATE] , please.
Compound NOT metabolized

###

testName: The drug is tested on Bifidobacterium ruminantium strain: fecal isolate for biotransformation. The drug concentrations were measured before and after a 12-h incubation by liquid-chromatography-coupled mass spectrometry (LC–MS)
conditionDetails: 2 µM
valueKind: Bacterial Biotransformation

Worked set:
compound	testResult
CC(C)OC(=O)C(C)(C)Oc1ccc(C(=O)c2ccc(Cl)cc2)cc1 [FENOFIBRATE]	Compound metabolized
CN1CCN(C(=O)O[C@H]2c3nccnc3C(=O)N2c2ccc(Cl)cn2)CC1 [ESZOPICLONE]	Compound NOT metabolized
CC(NC(C)(C)C)C(=O)c1cccc(Cl)c1 (configuration not stated) [BUPROPION]	Compound metabolized
CCN(C(C)=O)c1cccc(-c2ccnc3c(C#N)cnn23)c1 [ZALEPLON]	Compound NOT metabolized

Tell me the measured Bacterial Biotransformation of N#Cc1ccc(C(c2ccc(C#N)cc2)n2cncn2)cc1 [LETROZOLE] , please.
Compound NOT metabolized

Tell me the measured Bacterial Biotransformation of O=C(NC(Cc1cc(=O)[nH]c2ccccc12)C(=O)O)c1ccc(Cl)cc1 (configuration not stated) [REBAMIPIDE] , please.
Compound NOT metabolized

Tell me the measured Bacterial Biotransformation of CCN(CC)CC#CCOC(=O)C(O)(c1ccccc1)C1CCCCC1.Cl (configuration not stated) [OXYBUTYNIN CHLORIDE] , please.
Compound metabolized

Tell me the measured Bacterial Biotransformation of CC(=O)Nc1ccc(OC(C)=O)cc1 [DIACETAMATE] , please.
Compound metabolized

Tell me the measured Bacterial Biotransformation of CN1CCOC(c2ccccc2)c2ccccc2C1 (configuration not stated) [NEFOPAM] , please.
Compound NOT metabolized

Tell me the measured Bacterial Biotransformation of CN1CCN(C2=Nc3cc(Cl)ccc3Nc3ccccc32)CC1 [CLOZAPINE] , please.
Compound NOT metabolized

Tell me the measured Bacterial Biotransformation of C#C[C@]1(OC(C)=O)CC[C@H]2[C@@H]3CCC4=C[C@@H](OC(C)=O)CC[C@@H]4[C@H]3CC[C@@]21C [ETHYNODIOL DIACETATE] , please.
Compound NOT metabolized

Tell me the measured Bacterial Biotransformation of COc1ccc2c(c1)c(CC(=O)O)c(C)n2C(=O)c1ccc(Cl)cc1 [INDOMETHACIN] , please.
Compound NOT metabolized

Tell me the measured Bacterial Biotransformation of CCC(C)n1ncn(-c2ccc(N3CCN(c4ccc(OCC5COC(Cn6cncn6)(c6ccc(Cl)cc6Cl)O5)cc4)CC3)cc2)c1=O (configuration not stated) [ITRACONAZOLE] , please.
Compound NOT metabolized

Tell me the measured Bacterial Biotransformation of COc1cc2c(c(OC)c1OC)-c1ccc(OC)c(=O)cc1[C@@H](NC(C)=O)CC2 [COLCHICINE] , please.
Compound NOT metabolized

Tell me the measured Bacterial Biotransformation of COc1cc2nc(N(C)CCCNC(=O)C3CCCO3)nc(N)c2cc1OC (configuration not stated) [ALFUZOSIN] , please.
Compound NOT metabolized

Tell me the measured Bacterial Biotransformation of C=C[C@H]1CN2CC[C@H]1C[C@H]2[C@H](O)c1ccnc2ccc(OC)cc12.C=C[C@H]1CN2CC[C@H]1C[C@H]2[C@H](O)c1ccnc2ccc(OC)cc12.O.O.O=S(=O)(O)O [QUININE SULFATE] , please.
Compound NOT metabolized

Tell me the measured Bacterial Biotransformation of CN(C/C=C/C#CC(C)(C)C)Cc1cccc2ccccc12 [TERBINAFINE] , please.
Compound NOT metabolized

Data origin, for the record: ChEMBL document CHEMBL5303573
